Assay: AUC in Sprague-Dawley rat at 44.83 mg/kg, po
Assay type: ADME, organism-based
Parameters: dose 44.83 mg/kg, route oral
Details: plasma
Measured Property: AUC
// unit must come after the numeric part

The compound identified as CCC(OC(=O)c1ccccc1OC(C)=O)O[N+](=O)[O-] (stereo not drawn) registered its AUC at 53600 ng·h/mL

Next:
Entry CCCC(OC(=O)c1ccccc1OC(C)=O)O[N+](=O)[O-] (stereo not drawn) , AUC reported as 73500 ng·h/mL

AUC for CC(=O)Oc1ccccc1C(=O)OC(C)O[N+](=O)[O-] (stereo not drawn) is 89800 ng·h/mL

This collection of values is drawn from ChEMBL document CHEMBL3352635.
